Kindly supply the reported EC50 values for the records listed here.
Tested on: PKC mediated IL-2 production
Assay: IL-2 ELISA, human primary T cell, anti CD3+CD28+
Type: cell-based
Conditions: Homo sapiens, T-cell, 24 h, human primary T cells stimulated with αCD3 and αCD28, 24 hours

COCCOCCOc1ccc(Nc2ncc(F)c(N[C@@H]3C[C@@H]4CCCN4C(C)(C)C3)n2)cc1-n1cnnn1 | < 100 nM

Quick request: EC50 for each listed item, please.
1. Cn1nnn(-c2cc(Nc3ncc(F)c(N[C@@H]4C[C@@H]5CCCN5C(C)(C)C4)n3)ccc2OC2CCOCC2)c1=O (stereo in doubt)
2. CC1(C)CC[C@H]2C[C@@H](Nc3nc(Nc4ccc(OC5CC(OCc6ccccc6)C5)c(Cl)c4)ncc3F)CCN21 (stereo partly drawn)
3. CC1CN(c2ccc(Nc3ncc(F)c(N[C@H]4CCN5[C@@H](CCC5(C)C)C4)n3)cc2OC(F)F)CC(C)O1 (stereo partly drawn)
4. CC1(C)C[C@H](Nc2nc(Nc3ccc(Cl)c(-n4nnnc4C4CC4)c3)ncc2Cl)C[C@@H]2CCCN21

Completion:
100 to 500 nM
1000 to 10000 nM
100 to 500 nM
< 100 nM

Take each entry in turn and give its EC50.
1. CC1(C)C[C@H](Nc2nc(Nc3ccc(OCCO)c(C#N)c3)ncc2F)C[C@@H]2CCCN21
2. CC1(C)C[C@H](Nc2nc(Nc3cccc(-n4nnn(C5COC5)c4=O)c3)ncc2F)C[C@@H]2CCCN21

Completion:
1: 100 to 500 nM; 2: 100 to 500 nM

Please give EC50 for each item listed below.
1. Cn1nnn(-c2cc(Nc3ncc(F)c(N[C@@H]4C[C@@H]5CCCN5C(C)(C)C4)n3)c(F)cc2OCC2CCOCC2)c1=O
2. C[C@H](CO)Oc1cc(F)c(Nc2ncc(F)c(N[C@@H]3C[C@@H]4CCCN4C(C)(C)C3)n2)cc1-n1nnn(C)c1=O
3. CC1(C)CC(Nc2nc(Nc3ccc(OC4CCOCC4)c(C#N)c3)ncc2F)CC2CCCN21 (stereo not drawn)
4. CNc1nc2cc(Nc3ncc(F)c(N[C@@H]4C[C@@H]5CCCN5C(C)(C)C4)n3)c(F)cc2o1
5. Cc1nnnn1-c1cc(Nc2ncc(F)c(N[C@@H]3C[C@@H]4CCCN4C(C)(C)C3)n2)c(F)cc1OC1COC1
6. CC1(C)C[C@H](Nc2nc(Nc3ccc(Br)c(C#N)c3)ncc2F)C[C@@H]2CCCN21
7. C=Cc1cc(F)c(Nc2ncc(F)c(N[C@@H]3C[C@@H]4CCCN4C(C)(C)C3)n2)cc1-n1nnn(C)c1=O

Completion:
1: 100 to 500 nM; 2: < 100 nM; 3: 100 to 500 nM; 4: 1000 to 10000 nM; 5: < 100 nM; 6: 100 to 500 nM; 7: < 100 nM

---

Kindly state pEC50 for each of the entries shown.
Tested on: PKC mediated IL-2 production
Test: IL-2 ELISA, human primary T cell, anti CD3+CD28+
Type: cell-based
Details: human primary T cells stimulated with αCD3 and αCD28, 24 hours
pEC50: −log10 of the molar value.

A selection of reference data follows.
COc1cc(Nc2ncc(F)c(N[C@@H]3C[C@H]4CCCN4C(C)(C)C3)n2)cc(-n2nnnc2C)c1 (single isomer, unassigned) [Compound 12] | 6.00 to 6.30
CC1(C)Oc2ccc(Nc3ncc(F)c(N[C@@H]4C[C@@H]5CCCN5C(C)(C)C4)n3)cc2-n2nnnc21 [Compound 4] | 5.00 to 6.00
CC1(C)CC(Nc2nc(Nc3ccc(O[C@H]4CCOC4)c(C#N)c3)ncc2F)CC2CCCN21 (single isomer, unassigned) [Compound 62] | 6.30 to 7.00
Cn1nnn(-c2cc(Nc3ncc(F)c(N[C@@H]4C[C@@H]5CCCN5C(C)(C)C4)n3)c(F)cc2OCCN)c1=O [Compound 228] | 6.30 to 7.00
CC1(C)CC(Nc2nc(Nc3ccc(O[C@@H]4CCOC4)c(C#N)c3)ncc2F)CC2CCCN21 (single isomer, unassigned) [Compound 59] | 6.30 to 7.00

Hey, quick one: what's pEC50 for each of these?
1. Cn1nnn(-c2cc(Nc3ncc(F)c(N[C@@H]4C[C@@H]5CCCN5C(C)(C)C4)n3)c(F)cc2OCCN)c1=O [Compound 231]
2. CC(=O)N(C)c1cc(Nc2ncc(F)c(NC3CC(C)(C)N4CCCC4C3C)n2)c(F)cc1C1CC1 (stereo not shown) [Compound 73]
3. CC1(C)Oc2c(F)cc(Nc3ncc(F)c(NC4CC5CCCN5C(C)(C)C4)n3)cc2-n2nnnc21 (stereo not shown) [Compound 5]

Completion:
6.00 to 6.30
6.30 to 7.00
6.30 to 7.00

Would you mind giving pEC50 for every compound in the list below?
1. Cn1nnn(-c2cc(Nc3ncc(F)c(NC4CCN5C(CCC5(C)C)C4)n3)c(F)cc2C2CC2)c1=O (single isomer, unassigned) [Compound 35]
2. CC1(C)CC(Nc2nc(Nc3cc(-n4cnnn4)c(C4CC4)cc3F)ncc2F)CC2CCCN21 (single isomer, unassigned) [Compound 55]

Completion:
1. 5.00 to 6.00
2. 6.30 to 7.00

Please state, for each entry, its recorded pEC50.
1. Cn1nnn(-c2cc(Nc3ncc(F)c(NC4CCN5CCCC5C4)n3)c(F)cc2C2CC2)c1=O (stereo not shown) [Compound 29]
2. CC(C)N1CCC(Oc2ccc(Nc3ncc(F)c(N[C@@H]4C[C@H]5CCCN5C(C)(C)C4)n3)cc2OC(F)F)CC1 (single isomer, unassigned) [Compound 8]
3. CC1(O)COc2ccc(Nc3ncc(F)c(N[C@@H]4C[C@@H]5CCCN5C(C)(C)C4)n3)cc2-n2nnnc21 (stereo partly shown) [Compound 127]

Completion:
5.00 to 6.00
6.00 to 6.30
> 7.00
